target: Genome polyprotein (dengue virus type 2) (UniProt P29990); experiment: Inhibition of full length DENV2 NS2B-NS3 protease in human HeLa cells expressing luciferase reporter gene at 12.5 uM incubated for 24 hrs by luminescence analysis relative to control; format: cell-based
In this section, each of the molecules is paired with its reported inhibition.

Nc1ccc(C(=O)Nc2ccc3c(c2)B(O)OC3)cc1
14.3%

Value of inhibition reported for the molecule CC(C(=O)Nc1ccc2c(c1)B(O)OC2)c1cccc(Oc2ccccc2)c1 (stereo not given) is 76.7%

Field inhibition (entry "O=C(Nc1cccc(B(O)O)c1)c1cccc(OCc2ccccc2)c1" ) reads 65.1%

Recorded result, "O=[N+]([O-])c1ccc2c(c1)B(O)OC2" , inhibition: 14.5%

Data point: "N=C(N)Nc1ccc2c(c1)B(O)OC2" ; inhibition = < 10%

----------
test system: HeLa; assay: Cytotoxicity against human HeLa cells expressing luciferase-based DENV-2 protease reporter system assessed as reduction in cell viability by celltiter-blue assay; format: toxicity
Metric: CC50

Solved cases below.
O=C(Nc1ccc2c(c1)B(O)OC2)c1ccccc1OCc1ccccc1
> 50 µM
O=C(Nc1ccc2c(c1)B(O)OC2)c1cccc(OCc2c(Cl)cccc2Cl)c1
39.7 µM
O=C(Nc1ccc2c(c1)B(O)OC2)c1cccc(Oc2ccccc2)c1
> 50 µM
N#Cc1ccc(COc2cccc(C(=O)Nc3ccc4c(c3)B(O)OC4)c2)cc1
> 200 µM
O=C(NCc1ccc(B(O)O)cc1)c1cccc(OCc2ccccc2)c1
> 50 µM

get_value(item= "O=C(Nc1ccc2c(c1)B(O)OC2)c1cccc(OCC2CCCCC2)c1" , readout=CC50) returns 123 µM

Value of measured CC50 for the entry "O=C(Nc1ccc2c(c1)B(O)OC2)c1cccc(NCc2ccccc2)c1" : 144 µM

CC50 measured on "O=S(=O)(Nc1ccc2c(c1)B(O)OC2)c1ccc(Cl)cc1" = > 50 µM

According to the records, this molecule CC(C(=O)Nc1ccc2c(c1)B(O)OC2)c1cccc(Oc2ccccc2)c1 (centres undefined) displays CC50 of > 50 µM

Entry "CN(c1ccc2c(c1)B(O)OC2)S(=O)(=O)c1ccc(Cl)cc1" ; CC50 = > 50 µM

----------
target: Genome polyprotein (dengue virus type 2); test: Inhibition of full length DENV2 NS2B-NS3 protease in human HeLa cells expressing luciferase reporter gene at 12.5 uM incubated for 24 hrs by luminescence analysis relative to control; format: cell-based
Metric: inhibition

Answered cases to consult:
Nc1ccc2c(c1)B(O)OC2
< 10%
O=C(Nc1ccc2c(c1)B(O)OC2)c1ccc(C(F)(F)F)cc1
< 10%

Tested on Genome polyprotein (dengue virus type 2), the item "OB1OCc2ccccc21" showed inhibition equal to < 10%

----------
system: HeLa; test: Cytotoxicity against human HeLa cells expressing luciferase-based DENV-2 protease reporter system assessed as reduction in cell viability by celltiter-blue assay; format: toxicity
Metric: CC50

Nc1ccc(C(=O)Nc2ccc3c(c2)B(O)OC3)cc1
> 200 µM
N=C(N)Nc1ccc2c(c1)B(O)OC2
> 100 µM
O=C(Nc1ccc2c(c1)B(O)OC2)c1cccc(OCc2ccccc2)c1
55.2 µM

# molecule "COc1cccc(C(=O)Nc2ccc3c(c2)B(O)OC3)c1" ; its CC50 = > 100 µM

Documented CC50 of "O=C(Nc1ccccc1)Nc1ccc2c(c1)B(O)OC2" : > 200 µM

Each recorded value in this set is attributed to ChEMBL document CHEMBL5113504.
